Taken from ChEMBL document CHEMBL4020777.

pIC50 values by entry
Tested on: A549
assay protocol: Cytotoxicity against human A549 cells by MTT assay
Type: functional, cell-based
pIC50: −log10 of the molar value.
readout: pIC50

| compound | readout | result qualifier | result value |
| --- | --- | --- | --- |
| CC[C@@]1(O)C(=O)OCc2c1cc1n(c2=O)Cc2cc3ccccc3nc2-1 | pIC50 | = | 6.15 |
| COC(=O)/C=C1\CC[C@H]2[C@@H](C(=O)C[C@@H]3[C@]2(C)CC[C@H](OC(C)=O)[C@]3(C)C(=O)OC)[C@H]1C | pIC50 | < | 5.00 |
| COC(=O)/C=C1\CC[C@H]2[C@@H]([C@@H](O)C(=O)[C@@H]3[C@]2(C)CCC[C@]3(C)C(=O)OC)[C@H]1C | pIC50 | < | 5.00 |
| COC(=O)[C@@]1(C)CCC[C@@]2(C)[C@H]1[C@@H](O)C(=O)[C@H]1[C@@H](C)/C(=C/C(=O)OCCN(C)C)CC[C@@H]12 | pIC50 | = | 5.32 |
| COC(=O)[C@@]1(C)CCC[C@@]2(C)[C@H]1C[C@H](O)[C@H]1[C@@H](C)/C(=C/C(=O)OCCN(C)C)CC[C@@H]12 | pIC50 | = | 5.51 |
| C/C=C(\C)C(=O)O[C@H]1CC[C@@]2(C)[C@@H](CC(=O)[C@H]3[C@@H](C)/C(=C/C(=O)OCCNC)CC[C@@H]32)[C@@]1(C)C(=O)OC | pIC50 | = | 6.30 |
| C/C=C(\C)C(=O)O[C@H]1CC[C@@]2(C)[C@@H]([C@@H](O)C(=O)[C@H]3[C@@H](C)/C(=C/C(=O)OC)CC[C@@H]32)[C@@]1(C)C(=O)OC | pIC50 | < | 5.00 |
| COC(=O)[C@@]1(C)CCC[C@@]2(C)[C@H]1C(=O)[C@H](O)[C@H]1[C@@H](C)/C(=C/C(=O)OCCN(C)C)CC[C@@H]12 | pIC50 | < | 5.00 |
| C/C=C(\C)C(=O)O[C@H]1CC[C@@]2(C)[C@@H](C(=O)[C@H](O)[C@H]3[C@@H](C)/C(=C/C(=O)OCCNC)CC[C@@H]32)[C@@]1(C)C(=O)OC | pIC50 | = | 5.85 |
| COC(=O)[C@@]1(C)CCC[C@@]2(C)[C@H]1CC(=O)[C@H]1[C@@H](C)/C(=C/C(=O)OCCN(C)C)CC[C@@H]12 | pIC50 | = | 5.47 |
| CNCCOC(=O)/C=C1\CC[C@H]2[C@@H]([C@@H](O)C(=O)[C@@H]3[C@]2(C)CCC[C@]3(C)C(=O)OC)[C@H]1C | pIC50 | = | 6.05 |
| COC(=O)CC1=CC[C@H]2[C@@H](C(=O)[C@H](O)[C@@H]3[C@]2(C)CCC[C@]3(C)C(=O)OC)[C@H]1C | pIC50 | < | 5.00 |
| CNCCOC(=O)/C=C1\CC[C@H]2[C@@H](C(=O)[C@H](O)[C@@H]3[C@]2(C)CCC[C@]3(C)C(=O)OC)[C@H]1C | pIC50 | = | 5.68 |
| COC(=O)/C=C1\CC[C@H]2[C@@H](C(=O)[C@H](O)[C@@H]3[C@]2(C)CCC[C@]3(C)C(=O)OC)[C@H]1C | pIC50 | < | 5.00 |
